Experiment: Cynomolgus monkey tolerability, urine analysis (Example 34)
Conditions: cynomolgus monkeys, 35 mg/kg subcutaneously, day 44
Param label: returns TRUE when UALB < 0.2 mg/dL, returns FALSE otherwise, including exact equality.

>  <SUBSTANCE>
1198605 (GTAATATTGCAATCTG; modified gapmer, further chemistry not given here) [compound 1198605]

>  <GROUP>
FALSE

$$$$
>  <SUBSTANCE>
958499 (ATTAGAGTATGTGGCA; 3-10-3 cEt gapmer, further chemistry not given here) [compound 958499]

>  <GROUP>
TRUE

$$$$
>  <SUBSTANCE>
1197270 (TTAAAGTGTATGTCAG; cEt gapmer with 2'-OMe nucleoside, phosphorothioate, further chemistry not given here) [compound 1197270]

>  <GROUP>
FALSE

$$$$
>  <SUBSTANCE>
1198728 (TATTAGAGTATGTGGC; modified gapmer, further chemistry not given here) [compound 1198728]

>  <GROUP>
FALSE

$$$$
>  <SUBSTANCE>
1198831 (CACTTTTACATTAGGA; chemically modified gapmer, further chemistry not given here) [compound 1198831]

>  <GROUP>
TRUE

$$$$

* * *

Assay: Cynomolgus monkey tolerability, kidney and liver function markers (Example 34)
Details: cynomolgus monkeys, 35 mg/kg subcutaneously, day 44
Tick 1 (yes) if GLU is 90 mg/dL or greater. Tick 0 (no) if GLU is less than 90 mg/dL.

>  <SUBSTANCE>
1198728 (TATTAGAGTATGTGGC; modified gapmer, further chemistry not given here) [compound 1198728]

>  <GROUP>
1 (yes)

$$$$
>  <SUBSTANCE>
1198623 (CTAAGTAAGGTTTCCC; modified gapmer, further chemistry not given here) [compound 1198623]

>  <GROUP>
0 (no)

$$$$
>  <SUBSTANCE>
958499 (ATTAGAGTATGTGGCA; 3-10-3 cEt gapmer, further chemistry not given here) [compound 958499]

>  <GROUP>
0 (no)

$$$$
>  <SUBSTANCE>
1197270 (TTAAAGTGTATGTCAG; cEt gapmer with 2'-OMe nucleoside, phosphorothioate, further chemistry not given here) [compound 1197270]

>  <GROUP>
1 (yes)

$$$$
>  <SUBSTANCE>
1198872 (TGTATGTCAGAAGAGT; chemically modified gapmer, further chemistry not given here) [compound 1198872]

>  <GROUP>
0 (no)

$$$$

* * *

Test system: Yap1 mRNA
Assay: Antisense inhibition of human Yap1 in SNU-449 cells by modified oligonucleotides, single dose (Example 5, RTS36584)
Format: cell-based
Conditions: Table 52; Yap1 mRNA, modified oligonucleotides targeting SEQ ID NO: 1 and 2
Strand notation (5' to 3'): a small letter for the sugar, then the base; units joined by * are phosphorothioate-linked, units joined directly phosphodiester-linked; [ ] holds rarer units or linkages, { } end groups; capitals alone tell only the bases. k = constrained ethyl (cEt); [5mC] = 5-methylcytosine; d = 2'-deoxy (DNA); m = 2'-O-methyl
Measured YAP1 (% UT), listed per entry.

>  <SUBSTANCE>
1200802 (TATAACTGGGCAAATT; cEt gapmer, phosphorothioate, 5-methylcytosine, chemistry not fully specified) [Compound 1200802]

>  <YAP1 (% UT)>
89

$$$$
>  <SUBSTANCE>
1200833 (kG*kA*kT*dT*dT*mA*dG*dG*dA*dT*dG*d[5mC]*dA*kT*kG*kG; antisense) [Compound 1200833]

>  <YAP1 (% UT)>
31

$$$$
>  <SUBSTANCE>
1200791 (kA*kT*kG*dG*dA*mA*dA*dT*dT*dG*dT*d[5mC]*dT*k[5mC]*kA*kT; antisense) [Compound 1200791]

>  <YAP1 (% UT)>
46

$$$$
>  <SUBSTANCE>
1200803 (kG*kG*kT*dA*dT*mA*dA*d[5mC]*dT*dG*dG*dG*d[5mC]*kA*kA*kA; antisense) [Compound 1200803]

>  <YAP1 (% UT)>
22

$$$$
>  <SUBSTANCE>
1200861 (kT*kT*kA*dA*dA*mG*dT*dG*dT*dA*dT*dG*dT*k[5mC]*kA*kG; antisense) [Compound 1200861]

>  <YAP1 (% UT)>
10

$$$$
>  <SUBSTANCE>
1200824 (kG*k[5mC]*kT*dT*dT*mG*dG*dA*dA*dG*dA*dT*d[5mC]*kT*kG*kA; antisense) [Compound 1200824]

>  <YAP1 (% UT)>
43

$$$$
>  <SUBSTANCE>
1200808 (kA*k[5mC]*kT*dG*dA*mG*dG*dT*dA*dT*dA*dA*d[5mC]*kT*kG*kG; antisense) [Compound 1200808]

>  <YAP1 (% UT)>
45

$$$$
>  <SUBSTANCE>
1200838 (kA*kT*kA*dT*dG*mG*dT*dT*dT*dT*dG*dT*dG*kT*kG*kT; antisense) [Compound 1200838]

>  <YAP1 (% UT)>
65

$$$$
>  <SUBSTANCE>
1200829 (kA*kG*kG*dA*dT*mG*d[5mC]*dA*dT*dG*dG*dT*dT*kT*kT*kT; antisense) [Compound 1200829]

>  <YAP1 (% UT)>
49

$$$$
>  <SUBSTANCE>
1200823 (k[5mC]*kT*kT*dT*dG*mG*dA*dA*dG*dA*dT*d[5mC]*dT*kG*kA*kA; antisense) [Compound 1200823]

>  <YAP1 (% UT)>
46

$$$$
>  <SUBSTANCE>
1200826 (kG*kT*kG*d[5mC]*dT*mU*dT*dG*dG*dA*dA*dG*dA*kT*k[5mC]*kT; antisense) [Compound 1200826]

>  <YAP1 (% UT)>
26

$$$$
>  <SUBSTANCE>
1200806 (kT*kG*kA*dG*dG*mU*dA*dT*dA*dA*d[5mC]*dT*dG*kG*kG*k[5mC]; antisense) [Compound 1200806]

>  <YAP1 (% UT)>
24

$$$$
>  <SUBSTANCE>
1200792 (kA*kT*kA*dT*dG*mG*dA*dA*dA*dT*dT*dG*dT*k[5mC]*kT*k[5mC]; antisense) [Compound 1200792]

>  <YAP1 (% UT)>
52

$$$$

* * *

System: Yap1 mRNA
Assay: Antisense inhibition of human Yap1 in SNU-449 cells by modified oligonucleotides, single dose (Example 5, RTS36584)
Type: cell-based
Settings: Table 39; SNU-449 cells, 10,000 cells per well, free uptake, 2,000 nM oligonucleotide, approx. 48 hours; RTS36584; normalized to RIBOGREEN; Yap1 mRNA relative to untreated control
Strand notation (5' to 3'): a small letter for the sugar, then the base; units joined by * are phosphorothioate-linked, units joined directly phosphodiester-linked; [ ] holds rarer units or linkages, { } end groups; capitals alone tell only the bases. e = 2'-O-(2-methoxyethyl) (MOE); k = constrained ethyl (cEt); [5mC] = 5-methylcytosine; d = 2'-deoxy (DNA)

>  <SUBSTANCE>
1095398 (antisense k[5mC]*dT*dG*dA*dG*dG*dT*dA*dT*dA*dA*k[5mC]*eT*kG*eG*kG) [Compound 1095398]

>  <TARGET_DESC>
Yap1 mRNA

>  <YAP1 (% UTC)>
38

$$$$
>  <SUBSTANCE>
1198378 (kA*dT*dA*dT*dG*dG*dA*dA*dA*dT*dT*kG*eT*k[5mC]*eT*k[5mC]; antisense) [Compound 1198378]

>  <TARGET_DESC>
Yap1 mRNA

>  <YAP1 (% UTC)>
39

$$$$
>  <SUBSTANCE>
1198435 (kA*dT*dG*dT*dA*dA*dT*dA*dT*dT*dG*k[5mC]*eA*kA*eT*k[5mC]; antisense) [Compound 1198435]

>  <TARGET_DESC>
Yap1 mRNA

>  <YAP1 (% UTC)>
57

$$$$
>  <SUBSTANCE>
1198418 (kT*d[5mC]*dA*dG*dA*dT*dT*dT*dA*dG*dG*kA*eT*kG*e[5mC]*kA; antisense) [Compound 1198418]

>  <TARGET_DESC>
Yap1 mRNA

>  <YAP1 (% UTC)>
67

$$$$
>  <SUBSTANCE>
1198447 (kT*dA*dA*dG*dG*dT*dT*dT*d[5mC]*d[5mC]*d[5mC]*kA*eG*kA*eT*kT; antisense) [Compound 1198447]

>  <TARGET_DESC>
Yap1 mRNA

>  <YAP1 (% UTC)>
63

$$$$
>  <SUBSTANCE>
1198450 (kT*dA*dA*dG*dT*dA*dA*dG*dG*dT*dT*kT*e[5mC]*k[5mC]*e[5mC]*kA; antisense) [Compound 1198450]

>  <TARGET_DESC>
Yap1 mRNA

>  <YAP1 (% UTC)>
42

$$$$
